These entries and their values trace back to ChEMBL document CHEMBL3259697.

- experimental_target: Discoidin domain-containing receptor 2 (Homo sapiens, UniProt Q16832)
- Sequence (Q16832 whole entry): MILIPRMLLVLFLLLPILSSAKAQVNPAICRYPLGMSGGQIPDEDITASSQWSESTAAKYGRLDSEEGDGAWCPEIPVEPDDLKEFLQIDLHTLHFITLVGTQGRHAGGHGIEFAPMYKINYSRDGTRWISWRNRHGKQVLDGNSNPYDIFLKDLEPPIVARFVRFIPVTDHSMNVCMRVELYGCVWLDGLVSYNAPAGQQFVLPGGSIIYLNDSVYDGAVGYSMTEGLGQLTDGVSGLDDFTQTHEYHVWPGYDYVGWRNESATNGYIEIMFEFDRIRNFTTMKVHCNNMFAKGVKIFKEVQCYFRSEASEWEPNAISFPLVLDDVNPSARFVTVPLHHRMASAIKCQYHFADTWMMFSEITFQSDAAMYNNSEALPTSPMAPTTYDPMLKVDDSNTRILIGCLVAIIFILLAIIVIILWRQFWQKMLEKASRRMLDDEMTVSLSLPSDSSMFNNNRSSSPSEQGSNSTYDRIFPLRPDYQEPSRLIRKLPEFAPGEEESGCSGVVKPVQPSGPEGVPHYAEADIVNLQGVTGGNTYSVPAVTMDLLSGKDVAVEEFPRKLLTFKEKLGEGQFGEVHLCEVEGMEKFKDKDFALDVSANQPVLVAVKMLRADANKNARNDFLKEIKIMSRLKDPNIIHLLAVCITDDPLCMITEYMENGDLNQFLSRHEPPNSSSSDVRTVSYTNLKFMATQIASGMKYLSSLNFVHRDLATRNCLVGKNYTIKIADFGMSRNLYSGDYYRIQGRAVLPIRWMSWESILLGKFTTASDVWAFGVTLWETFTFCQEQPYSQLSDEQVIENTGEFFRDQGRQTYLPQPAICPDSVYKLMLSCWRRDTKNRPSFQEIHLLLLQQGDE
pKd: −log10 of the molar value.
Returns one of yes or no; yes when pKd is >= 7.

molecular_string | experimental_target | cat
CC(C)(C)c1cc(NC(=O)Nc2ccc(OCCN3CCOCC3)c3ccccc23)n(-c2cccc(N)c2)n1 | Discoidin domain-containing receptor 2 (Homo sapiens, UniProt Q16832) | yes
COc1ccccc1NC(=O)c1sc2nc(C)c(C(=O)Nc3ccc(C)cc3C)c(-c3ccc(NC(C)=O)cc3)c2c1N | Discoidin domain-containing receptor 2 (Homo sapiens, UniProt Q16832) | no
Cc1ccc(-n2nc(C(C)(C)C)cc2NC(=O)Nc2nc(CCOCc3ccc(F)cc3)cs2)cc1 | Discoidin domain-containing receptor 2 (Homo sapiens, UniProt Q16832) | no
CC(C)(C)c1cc(NC(=O)Nc2cccc(Nc3ncnc4ccccc34)c2)n(-c2cccc(N)c2)n1 | Discoidin domain-containing receptor 2 (Homo sapiens, UniProt Q16832) | no
O=C(O)Cc1ccc(-n2nc(C3CCCC3)cc2NC(=O)Nc2nc(CCOCc3ccccc3)cs2)cc1 | Discoidin domain-containing receptor 2 (Homo sapiens, UniProt Q16832) | no
O=C(O)Cc1cccc(-n2nc(C3CCCC3)cc2NC(=O)Nc2nc(CCOCc3ccccc3)cs2)c1 | Discoidin domain-containing receptor 2 (Homo sapiens, UniProt Q16832) | no

###

- experimental_target: Epithelial discoidin domain-containing receptor 1 (Homo sapiens, UniProt Q08345)
- Sequence (Q08345 whole entry, the tested form may be a part): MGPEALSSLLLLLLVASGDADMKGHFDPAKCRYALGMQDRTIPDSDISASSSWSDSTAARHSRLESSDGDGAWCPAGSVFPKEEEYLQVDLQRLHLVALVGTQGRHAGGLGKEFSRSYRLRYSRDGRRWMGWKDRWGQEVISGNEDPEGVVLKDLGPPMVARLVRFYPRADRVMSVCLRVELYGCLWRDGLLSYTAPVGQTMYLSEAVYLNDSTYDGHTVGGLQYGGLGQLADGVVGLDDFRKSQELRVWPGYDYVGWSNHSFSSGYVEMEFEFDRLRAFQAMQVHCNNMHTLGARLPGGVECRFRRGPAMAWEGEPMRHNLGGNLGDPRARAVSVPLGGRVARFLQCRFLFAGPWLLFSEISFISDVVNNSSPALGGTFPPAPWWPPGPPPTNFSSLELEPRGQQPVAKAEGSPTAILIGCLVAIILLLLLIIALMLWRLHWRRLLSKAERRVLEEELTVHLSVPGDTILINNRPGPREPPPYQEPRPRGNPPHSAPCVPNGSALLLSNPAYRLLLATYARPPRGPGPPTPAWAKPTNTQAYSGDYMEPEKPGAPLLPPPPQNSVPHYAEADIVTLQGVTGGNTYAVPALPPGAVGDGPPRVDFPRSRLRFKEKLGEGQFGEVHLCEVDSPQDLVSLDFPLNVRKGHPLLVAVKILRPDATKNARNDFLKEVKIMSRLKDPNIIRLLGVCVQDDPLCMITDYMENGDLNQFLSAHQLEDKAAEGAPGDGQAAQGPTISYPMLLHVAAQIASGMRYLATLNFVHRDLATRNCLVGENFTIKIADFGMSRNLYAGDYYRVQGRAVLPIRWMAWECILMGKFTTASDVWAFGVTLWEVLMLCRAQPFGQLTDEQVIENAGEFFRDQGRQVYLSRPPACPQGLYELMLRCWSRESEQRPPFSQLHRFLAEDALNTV
- run_description: Inhibition of DDR1 (unknown origin) after 120 mins by radiometric assay in presence of gamma-[33P]-ATP
pIC50: −log10 of the molar value.

molecular_string | experimental_target | pIC50
Cc1ccc(-n2nc(C(C)(C)C)cc2NC(=O)Nc2nc(CCOCc3ccncc3)cs2)cc1 | Epithelial discoidin domain-containing receptor 1 (Homo sapiens, UniProt Q08345) | 7.17
